Origin of measurements: ChEMBL document CHEMBL4610116

experiment: MRT in non-antibioticc-treated C57Bl/6J mouse at 0.3 mg/kg, iv and measured after 5 mins to 24 hrs by LC/MS-SRM analysis; assay type: ADME, organism-based; conditions: in vivo
Readout: MRT (h)
Field format: number, assumed h, no unit text.

Asked: Can you share its MRT? I mean this compound: O=C(Nc1cc(C(F)(F)F)c(Oc2ccc(Cl)cc2)c(C(F)(F)F)c1)c1cc(Cl)cc(Cl)c1O
Given back: 5.26

---

assay: MRT in cefoperazone-treated C57Bl/6J mouse at 1 mg/kg, po dosed each day for 5 days by LC/MS-SRM analysis; assay type: ADME, organism-based; details: in vivo
Readout: MRT (h)
Field format: number, assumed h, no unit text.

Asked: Can you share its MRT? I mean this molecule: O=C(Nc1cc(C(F)(F)F)c(Oc2ccc(Cl)cc2)c(C(F)(F)F)c1)c1cc(Cl)cc(Cl)c1O
Given back: 9.7
